Assignment: determine reported calcium oscillation score for the given sequences.
# Study target: Tau
# Experiment summary: rat primary cortical neurons, FLIPR, 25 uM ASO
Bases are written 5' to 3'; sugars and linkages follow in the same order, as letters with counts (s phosphorothioate, o phosphodiester; PS: all linkages phosphorothioate). The collection does not say whether C is 5-methylated. l = locked nucleic acid (LNA); d = 2'-deoxy (DNA)

Prompt: Fill in calcium oscillation score for record ACTCAGTTCTCTATAAT (sugars l4 d9 l4, PS)
Response: 64.1 % of control

Prompt: Please look at this sequence and report its calcium oscillation score: TCCCCCAAAATATCTCAA (sugars l3 d13 l2, PS)
Response: 53.9 % of control

Prompt: Provide one value: measured calcium oscillation score of CTTGGCTTTGGCGTTC (sugars l3 d10 l3, PS)
Response: 2.61 % of control

Prompt: Please give the documented calcium oscillation score of TTAACTCATCAACACCTT (sugars l3 d11 l4, PS)
Response: 114 % of control

Prompt: Supply reported calcium oscillation score belonging to this sequence: CAACATTTGCACTCTCT (sugars l2 d11 l4, PS)
Response: 53 % of control

Prompt: State its calcium oscillation score for this sequence: CTCCCATCACTAGCACT (sugars l1 d14 l2, PS)
Response: 38.3 % of control

Prompt: Supply calcium oscillation score value. Item: TCCAGGGACCCAATCTTCGA (sugars l3 d14 l3, PS)
Response: 0 % of control

Prompt: Supply reported calcium oscillation score belonging to this sequence: TCCAAGTCAATGCCTGGCTT (sugars l3 d14 l3, PS)
Response: 18.1 % of control

Prompt: State, in one line, measured calcium oscillation score of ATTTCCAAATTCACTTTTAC (sugars llddldldddddddddllll, PS)
Response: 143 % of control

Prompt: Given GGACGTGGGTGATATTGTCC (sugars l3 d14 l3, PS) , respond with its calcium oscillation score.
Response: 0 % of control

* * *

# Study target: Tau
# Experiment summary: rat primary cortical neurons, FLIPR, 25 uM ASO
Bases are written 5' to 3'; sugars and linkages follow in the same order, as letters with counts (s phosphorothioate, o phosphodiester; PS: all linkages phosphorothioate). The collection does not say whether C is 5-methylated. l = locked nucleic acid (LNA); d = 2'-deoxy (DNA)
Metric: calcium oscillation score

Prompt: Give a short answer stating reported calcium oscillation score for AATATTACACCATCCA (sugars l4 d8 l4, PS) .
Response: 101 % of control

Prompt: Hello, please tell me recorded calcium oscillation score for this one: TCCAATACTAGATCTA (sugars l4 d9 l3, PS)
Response: 71.9 % of control

Prompt: Given the sequence CTGTGCTTCAGGCCTT (sugars l3 d10 l3, PS) , write its reported calcium oscillation score.
Response: 51 % of control

Prompt: Give the reported value of calcium oscillation score for this record: TTTACCCATCTTAATTCATT (sugars l4 d14 l2, PS)
Response: 78.1 % of control

Prompt: For the sequence TTCTCAAGTCTCTTTAA (sugars l3 d11 l3, PS) , give its measured calcium oscillation score value.
Response: 70.7 % of control

Prompt: Quote calcium oscillation score reported for GTTTATGATGGATGTTGCCT (sugars l3 d14 l3, PS) please.
Response: 3.32 % of control

Prompt: Answer with reported calcium oscillation score of ATACTCAAATTCTTCCTT (sugars l4 d11 l3, PS)
Response: 70.9 % of control

Prompt: Query calcium oscillation score for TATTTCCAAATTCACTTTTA (sugars llldldddddddddlddlll, PS)
Response: 125 % of control

Prompt: # return recorded calcium oscillation score for entry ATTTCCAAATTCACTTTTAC (sugars l5 d10 l5, PS)
Response: ≥ 200 % of control

Prompt: Quick one: give measured calcium oscillation score for CCATCATACTCCAAGTT (sugars l3 d12 l2, PS)
Response: 60.8 % of control

Prompt: Supply recorded calcium oscillation score for CTATTCCTGAATTTTTC (sugars l4 d10 l3, PS) here.
Response: 69 % of control

Prompt: Answer with the recorded calcium oscillation score of TAATCCTGTGCTTC (sugars l3 d8 l3, PS) only.
Response: 2.3 % of control

Prompt: Tell me calcium oscillation score reported for CCATTTTCCATATAATT (sugars l4 d9 l4, PS)
Response: 76.5 % of control

Prompt: // fetch calcium oscillation score given entry TTAACCAGCTAGTGGTGCCA (sugars l3 d14 l3, PS)
Response: 0 % of control

Prompt: Read off the recorded calcium oscillation score for CCCAAGAGGCACAAGT (sugars l3 d10 l3, PS)
Response: 89.5 % of control

Prompt: Please give measured calcium oscillation score of the following entry: AACCCCTTCAACATCAGC (sugars l2 d12 l4, PS)
Response: 64.9 % of control

Prompt: Answer with the recorded calcium oscillation score of TTACTGATCATAATCCT (sugars l4 d10 l3, PS) only.
Response: 67.3 % of control

Prompt: Item TCCCTTAATTTCAC (sugars l3 d8 l3, PS) : provide calcium oscillation score
Response: 133 % of control

Prompt: Given ACTAACTCTAAGTAGACCCT (sugars l3 d14 l3, PS) , respond with its calcium oscillation score.
Response: 40.3 % of control

Prompt: Consider the sequence GTTGCCTAATGAGCCA (sugars l3 d10 l3, PS) . State its measured calcium oscillation score.
Response: 46.1 % of control

Prompt: Recall and state the measured calcium oscillation score for GATGTTGCCTAATGAG (sugars l3 d10 l3, PS) .
Response: 0 % of control

Prompt: Kindly indicate its recorded calcium oscillation score. Item: AAGCCCATTTACAATTC (sugars l4 d10 l3, PS)
Response: 81.1 % of control

Prompt: Give recorded calcium oscillation score. ACCTCCTGGTTTATGATGGA (sugars l3 d14 l3, PS)
Response: 0 % of control

Prompt: Give reported calcium oscillation score value for ACTGATCATAATCCTAC (sugars l4 d9 l4, PS)
Response: 68.2 % of control

Prompt: For the sequence TTTTTACCAATTTGCCT (sugars l2 d11 l4, PS) , report calcium oscillation score.
Response: 55.5 % of control

Prompt: State its calcium oscillation score for this sequence: TGATCACCCTAAACCA (sugars l3 d10 l3, PS)
Response: 118 % of control

Prompt: Report calcium oscillation score, nothing else, for this sequence: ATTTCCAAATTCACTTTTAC (sugars llldldddddddddldldll, PS)
Response: 123 % of control

Prompt: Please report the measured calcium oscillation score for AGTGATTAACCAATTAACCG (sugars l3 d14 l3, PS)
Response: 5.18 % of control

Prompt: Identify the reported calcium oscillation score for the following entry. CGTTCTCGCGGAAGGT (sugars l3 d10 l3, PS)
Response: 13 % of control

Prompt: State its calcium oscillation score: AACAAACAAAAATCCCCTA (sugars l4 d11 l4, PS)
Response: 85.7 % of control

Prompt: State its calcium oscillation score for this sequence: CGTTTTCTTACCACCC (sugars l2 d12 l2, PS)
Response: 46.2 % of control

Prompt: Look up calcium oscillation score of CTTTATTTCCAAATTCAC (sugars l5 d9 l1 d1 l2, PS) and report it.
Response: 119 % of control

Prompt: # return recorded calcium oscillation score for input TTGTCCAGGGACCCAATCTT (sugars l3 d14 l3, PS)
Response: 3.32 % of control

Prompt: Give a short answer stating reported calcium oscillation score for AATGTCCAAAAATCCCC (sugars l2 d11 l4, PS) .
Response: 53 % of control

Prompt: Identify measured calcium oscillation score corresponding to CTAAGCACTTTACCCATC (sugars l3 d13 l2, PS)
Response: 97.6 % of control

Prompt: Quickly give me recorded calcium oscillation score for TTCTTTTTTTTTCCACACTC (sugars l3 d15 l2, PS)
Response: 27.4 % of control

Prompt: Fill in calcium oscillation score for record CCAATCAATTATATTATAT (sugars l4 d11 l4, PS)
Response: 60.8 % of control

Prompt: Output measured calcium oscillation score for this item: TCACTTTACACATTAAATTT (sugars l4 d12 l4, PS)
Response: 62.5 % of control

Prompt: Tell us which calcium oscillation score value is on record for TCAACTCTTAGCATCCAC (sugars l2 d13 l3, PS)
Response: 50 % of control

Prompt: Check the records and state calcium oscillation score for GAAATCCCTCTACTCC (sugars l2 d11 l3, PS)
Response: 70.7 % of control

Prompt: Tell me its calcium oscillation score given CAGCTAGCGTGGCGAG (sugars l3 d10 l3, PS) as the entry.
Response: 0 % of control

* * *

# Study target: Tau
# Experiment summary: rat primary cortical neurons, FLIPR, 25 uM ASO
Bases are written 5' to 3'; sugars and linkages follow in the same order, as letters with counts (s phosphorothioate, o phosphodiester; PS: all linkages phosphorothioate). The collection does not say whether C is 5-methylated. l = locked nucleic acid (LNA); d = 2'-deoxy (DNA)
Metric: calcium oscillation score

Prompt: Provide measured calcium oscillation score value, entry: TACACTGTCCTTTAAAC (sugars l4 d11 l2, PS)
Response: 66.1 % of control

Prompt: For the sequence ACACCTCGTCAGCTAGCGTG (sugars l3 d14 l3, PS) , give its measured calcium oscillation score value.
Response: 0 % of control

Prompt: Complete the entry with calcium oscillation score for CTGATCATAATCCTACC (sugars l3 d11 l3, PS)
Response: 54.9 % of control

Prompt: Given the sequence CAGCATTTCCATTTCATC (sugars l2 d13 l3, PS) , write its reported calcium oscillation score.
Response: 52.7 % of control

Prompt: Annotate the sequence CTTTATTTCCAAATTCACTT (sugars l3 d1 l1 d12 l3, PS) with its measured calcium oscillation score.
Response: 29.8 % of control

Prompt: Report calcium oscillation score for CATCCACTTAGACACTC (sugars l4 d11 l2, PS)
Response: 43.8 % of control

Prompt: Given the sequence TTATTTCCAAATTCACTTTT (sugars llddldldddddddddllll, PS) , write its reported calcium oscillation score.
Response: 118 % of control

Prompt: Answer with the recorded calcium oscillation score for the sequence listed here: GGCGCAGGCGCGAGCA (sugars l3 d10 l3, PS)
Response: 7.62 % of control

Prompt: Consider the sequence GCGCAGGCGCGAGCAG (sugars l3 d10 l3, PS) . State its measured calcium oscillation score.
Response: 0 % of control

Prompt: Quickly give me recorded calcium oscillation score for CCCATTTACAATTCAG (sugars l3 d10 l3, PS)
Response: 52.6 % of control

Prompt: Give calcium oscillation score for the following sequence: GCCCTAAAGTCCCAGG (sugars l3 d10 l3, PS)
Response: 41.9 % of control

Prompt: Provide calcium oscillation score value for the following sequence: CACCTCCTGGTTTATG (sugars l3 d10 l3, PS)
Response: 65.3 % of control

Prompt: State, in one line, measured calcium oscillation score of CCTCTAGTTTTACCTA (sugars l2 d11 l3, PS)
Response: 58.8 % of control

Prompt: Answer with the recorded calcium oscillation score of AATAACATTAACCCTT (sugars l4 d8 l4, PS) only.
Response: 72 % of control

Prompt: Answer with reported calcium oscillation score of CTGATCACAAACCCTGCTTG (sugars l3 d14 l3, PS)
Response: 20.3 % of control

Prompt: Read off the recorded calcium oscillation score for GTTAAGTGATTAACCAATTA (sugars l3 d14 l3, PS)
Response: 84.3 % of control

Prompt: Report calcium oscillation score for TCCTGTGCTTCAGG (sugars l3 d8 l3, PS)
Response: 108 % of control

Prompt: Report calcium oscillation score for GTCCTCACTTTACACATT (sugars l3 d13 l2, PS)
Response: 41 % of control

Prompt: Note down calcium oscillation score recorded for AAAGATGAAATTTGCTCTTA (sugars l3 d14 l3, PS)
Response: 145 % of control

Prompt: For the sequence ACTTATCTATCCATCTATT (sugars l3 d12 l4, PS) , give its reported calcium oscillation score.
Response: 55.8 % of control

Prompt: Assign calcium oscillation score to the following record: CCCAGAATTCTAACTAT (sugars l4 d11 l2, PS)
Response: 77 % of control

Prompt: Respond only with calcium oscillation score recorded for CTCATTGCAACTTTAAC (sugars l4 d9 l4, PS)
Response: 84.9 % of control

Prompt: Give me measured calcium oscillation score, please, for this sequence: GCCCTAAAGTCCCAG (sugars l3 d9 l3, PS)
Response: 34.3 % of control

Prompt: Indicate the recorded calcium oscillation score value for this sequence: AGATATTCATTCCCTCA (sugars l3 d12 l2, PS)
Response: 53 % of control

Prompt: Please report the measured calcium oscillation score for CAACTCAACATTACCCTTAA (sugars l3 d14 l3, PS)
Response: 68 % of control

Prompt: Return calcium oscillation score for the following sequence: TCACCACTTTAATCTGCC (sugars l2 d14 l2, PS)
Response: 69 % of control

Prompt: Read off the recorded calcium oscillation score for CCTCCACCCTTACACA (sugars l1 d13 l2, PS)
Response: 58.9 % of control

Prompt: Please look at this sequence and report its calcium oscillation score: AAATCCCTCTACTCCAG (sugars l2 d12 l3, PS)
Response: 51.4 % of control

Prompt: Please give the documented calcium oscillation score of TTACAAGCATTTCAAG (sugars l3 d10 l3, PS)
Response: 36.8 % of control

Prompt: Using the record for ACCCCGAATTTACACCC (sugars l1 d14 l2, PS) , state its measured calcium oscillation score.
Response: 86.2 % of control

Prompt: Give calcium oscillation score for CTTCTGTCACTTATTTA (sugars l4 d9 l4, PS)
Response: 46.9 % of control

Prompt: State, in one line, measured calcium oscillation score of TCCTAATTCCCAAATTCCTC (sugars l2 d15 l3, PS)
Response: 76.6 % of control

Prompt: Tell me measured calcium oscillation score for ATTTAGTTACTCATCC (sugars l4 d8 l4, PS) please.
Response: 72.6 % of control
